Tested on: A549
Experiment: Cytotoxicity against human lung adenocarcinoma cell line A549 assessed as inhibition of cell viability measured after 24 hrs by MTT assay
Type: functional, cell-based
Conditions: A549, 24 h
Entries and their IC50
Put your answer as a value accompanied by its unit after it.

test smiles | measurement
COc1ccc(Cc2nc(-c3cc(Br)c(O)c(Br)c3)cnc2Cl)cc1Br | 41.2 µM

The recorded IC50 for entry `COc1ccc(Cc2nc(-c3cc(Br)c(O)c(Br)c3)c[nH]c2=O)cc1Br` equals 52 µM

The recorded IC50 for entry `CNCCCOc1c(Br)cc(-c2cnc(Cl)c(Cc3ccc(OC)c(Br)c3)n2)cc1Br` equals 25.3 µM

The recorded IC50 for entry `COc1ccc(Cc2nc(-c3cc(Br)c(OCCCN(C)C)c(Br)c3)cnc2Cl)cc1Br` equals 14.4 µM

The recorded IC50 for entry `CNCCCOc1c(Br)cc(-c2c[nH]c(=O)c(Cc3ccc(OC)c(Br)c3)n2)cc1Br` equals 15.4 µM

The recorded IC50 for entry `COc1ccc(Cc2nc(-c3cc(Br)c(OCCCN(C)C)c(Br)c3)c[nH]c2=O)cc1Br` equals 12.2 µM
